test system: NAD-dependent protein deacetylase sirtuin-1 (Homo sapiens) (UniProt Q96EB6)
Sequence (Q96EB6 whole entry): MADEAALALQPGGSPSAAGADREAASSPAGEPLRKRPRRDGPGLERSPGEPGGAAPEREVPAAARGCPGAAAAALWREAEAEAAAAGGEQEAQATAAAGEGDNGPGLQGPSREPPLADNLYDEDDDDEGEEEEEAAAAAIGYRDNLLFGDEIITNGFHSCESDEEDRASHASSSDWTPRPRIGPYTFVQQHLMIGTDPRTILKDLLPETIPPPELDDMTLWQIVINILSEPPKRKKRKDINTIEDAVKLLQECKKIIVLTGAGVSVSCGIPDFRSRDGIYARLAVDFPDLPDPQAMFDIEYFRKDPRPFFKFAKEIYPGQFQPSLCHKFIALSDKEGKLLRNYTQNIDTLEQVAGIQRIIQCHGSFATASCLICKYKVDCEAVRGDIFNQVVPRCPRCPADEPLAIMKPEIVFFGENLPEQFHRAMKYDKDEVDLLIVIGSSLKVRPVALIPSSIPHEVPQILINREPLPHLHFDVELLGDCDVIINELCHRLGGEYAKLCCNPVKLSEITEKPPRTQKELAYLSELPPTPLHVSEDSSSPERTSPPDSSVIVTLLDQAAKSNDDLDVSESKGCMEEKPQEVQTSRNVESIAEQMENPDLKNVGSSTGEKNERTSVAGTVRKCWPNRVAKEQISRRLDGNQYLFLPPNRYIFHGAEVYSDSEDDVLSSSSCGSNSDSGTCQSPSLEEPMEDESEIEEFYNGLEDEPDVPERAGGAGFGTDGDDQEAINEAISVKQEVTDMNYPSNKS
assay remarks: Inhibition of SirT1 assessed as increase in p53 expression in human MCF7 cells at 10 uM after 6 hrs by Western blotting
Assay type: cell-based
Activity calls are given as the source filed them. The calls are words filed in the database; no cut-off is given here.
Outcomes: Y for active, N for inactive

{"compound string": "CN(C)CCCCC(=O)Nc1ccc(N(C)C(=S)NC(=O)c2ccc(C(C)(C)C)cc2)cc1", "discrete label": "N"}
{"compound string": "CN(C)CCCCC(=O)Nc1ccc(NC(=S)NC(=O)c2ccc(C(C)(C)C)cc2)cc1.Cl", "discrete label": "Y"}
{"compound string": "CC(=O)Nc1ccc(NC(=S)NC(=O)c2ccc(C(C)(C)C)cc2)cc1", "discrete label": "Y"}
{"compound string": "CN(C)CCOCCOCCOCCOCCOCC(=O)Nc1ccc(NC(=S)NC(=O)c2ccc(C(C)(C)C)cc2)cc1.Cl", "discrete label": "N"}
{"compound string": "CN(C)CCCC(=O)Nc1ccc(NC(=S)NC(=O)c2ccc(C(C)(C)C)cc2)cc1.Cl", "discrete label": "Y"}
{"compound string": "CN(C)CCCCCC(=O)Nc1ccc(NC(=S)NC(=O)c2ccc(C(C)(C)C)cc2)cc1.Cl", "discrete label": "Y"}
{"compound string": "CN(C)CCCCCCCC(=O)Nc1ccc(NC(=S)NC(=O)c2ccc(C(C)(C)C)cc2)cc1.Cl", "discrete label": "Y"}
